Experimental details: in vitro
Protocol conditions: male, Wistar, rat, pH 7.4

Chem smiles: O=c1[nH]cc(F)c(=O)[nH]1
recovery: 0%
